Provenance of the data: PubChem BioAssay AID1963868

System: KRAS PDC tumor spheroids (HUVEC+MSC), viability;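 also: spheroids exposed to compounds for seven days before readout; 100% = DMSO vehicle control luminescence of the spheroids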
runDescription: Anticancer human tumor 254851-301-R-J1-PDC patient-derived colon carcinoma cell line growth inhibition [KRAS2]; active = viability on the fitted dose curve at most 10% of control; inactive = the rest
settings: second compound 10 µM; first compound 3.16 µM
Log the outcome using a class from label 1 for active, label 0 for inactive

In: How was CC(C)NCC(C(=O)N1CCN(c2ncnc3c2C(C)CC3O)CC1)c1ccc(Cl)cc1 (stereo unspecified) + CC1OCC2(CCN(c3cnc(Sc4ccnc(N)c4Cl)c(N)n3)CC2)C1N classified in this test?
Out: label 0

In: How was CCNC(=O)CC1N=C(c2ccc(Cl)cc2)c2cc(OC)ccc2-n2c(C)nnc21 (stereo unspecified) + CNCc1ccccc1-c1csc(C(C)Nc2nc(C)nc3cc(OC)c(OC)cc23)c1 classified in this test?
Out: label 1

In: How was O=C(c1cc(Cc2n[nH]c(=O)c3ccccc23)ccc1F)N1CCN(C(=O)C2CC2)CC1 + CC1OCC2(CCN(c3cnc(Sc4ccnc(N)c4Cl)c(N)n3)CC2)C1N classified in this test?
Out: label 0

In: How was O=C(c1cc(Cc2n[nH]c(=O)c3ccccc23)ccc1F)N1CCN(C(=O)C2CC2)CC1 + CNCc1ccccc1-c1csc(C(C)Nc2nc(C)nc3cc(OC)c(OC)cc23)c1 classified in this test?
Out: label 1

In: How was CC(C)NCC(C(=O)N1CCN(c2ncnc3c2C(C)CC3O)CC1)c1ccc(Cl)cc1 (stereo unspecified) + C=CC(=O)N1CCN(c2nc(=O)n(-c3c(C)ccnc3C(C)C)c3nc(-c4c(O)cccc4F)c(F)cc23)C(C)C1 classified in this test?
Out: label 0

In: How was CC1(C)CCC(CN2CCN(c3ccc(C(=O)NS(=O)(=O)c4ccc(NCC5CCOCC5)c([N+](=O)[O-])c4)c(Oc4cnc5[nH]ccc5c4)c3)CC2)=C(c2ccc(Cl)cc2)C1 + COc1cc2nc(C)nc(NC(C)c3cc(N)cc(C(F)(F)F)c3)c2cc1OC1CCOC1 classified in this test?
Out: label 0

In: How was CCNC(=O)CC1N=C(c2ccc(Cl)cc2)c2cc(OC)ccc2-n2c(C)nnc21 (stereo unspecified) + C=CC(=O)N1CCN(c2nc(=O)n(-c3c(C)ccnc3C(C)C)c3nc(-c4c(O)cccc4F)c(F)cc23)C(C)C1 classified in this test?
Out: label 0

In: How was CC(=O)OC12COC1CC(O)C1(C)C(=O)C(O)C3=C(C)C(OC(=O)C(O)C(NC(=O)OC(C)(C)C)c4ccccc4)CC(O)(C(OC(=O)c4ccccc4)C21)C3(C)C (stereo unspecified) + CNCc1ccccc1-c1csc(C(C)Nc2nc(C)nc3cc(OC)c(OC)cc23)c1 classified in this test?
Out: label 1

In: How was COc1cc2nccc(Oc3ccc(NC(=O)C4(C(=O)Nc5ccc(F)cc5)CC4)cc3)c2cc1OC + CNCc1ccccc1-c1csc(C(C)Nc2nc(C)nc3cc(OC)c(OC)cc23)c1 classified in this test?
Out: label 1

In: How was CC1OCC2(CCN(c3cnc(Sc4ccnc(N)c4Cl)c(N)n3)CC2)C1N (stereo unspecified) + COc1cc2nc(C)nc(NC(C)c3cc(N)cc(C(F)(F)F)c3)c2cc1OC1CCOC1 classified in this test?
Out: label 0

In: How was COc1cc2nccc(Oc3ccc(NC(=O)C4(C(=O)Nc5ccc(F)cc5)CC4)cc3)c2cc1OC + CC1OCC2(CCN(c3cnc(Sc4ccnc(N)c4Cl)c(N)n3)CC2)C1N classified in this test?
Out: label 0
